B1: INTS3 (parent)
chain: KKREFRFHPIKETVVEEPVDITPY

# Variants of: B1
# assay notes: protein stability index of a GFP-peptide fusion (GPS, HEK-293T) (PSI 1-6); higher = more stable;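 also: lentivirally expressed fusions sorted by FACS into six bins by GFP to DsRed ratio, PSI derived from sequencing read proportions per bin multiplied by bin number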
# cond: c terminus: a fixed tail appended
So I've got a bunch of variants here, and I need their protein stability index values.

[ask] For the variant E12Y , give its measured protein stability index value.
[reply] 2

[ask] Note protein stability index for the variant shown: K1F
[reply] 2.04

[ask] Could you please provide reported protein stability index for I21C ? Thanks!
[reply] 2.01

[ask] Consider the variant T13Q and give its recorded protein stability index.
[reply] 1.96

[ask] Using known records, supply protein stability index for K1M
[reply] 1.96

[ask] For K11P , write its protein stability index.
[reply] 2.33

[ask] Output measured protein stability index for this item: I21N
[reply] 2

[ask] Identify measured protein stability index associated with E12L
[reply] 3.92

[ask] Give protein stability index for the following variant: K1I
[reply] 1.65

[ask] Identify measured protein stability index corresponding to E12S
[reply] 1.56

[ask] Identify measured protein stability index corresponding to V14E
[reply] 1.95

[ask] Kindly indicate its recorded protein stability index. Item: P9T
[reply] 2.42

[ask] In one line, give reported protein stability index of the entry K1A .
[reply] 2.29
